# ASSAY SYSTEM: Ylr278c (UniProt Q05854)
# Sequence (Q05854 whole entry): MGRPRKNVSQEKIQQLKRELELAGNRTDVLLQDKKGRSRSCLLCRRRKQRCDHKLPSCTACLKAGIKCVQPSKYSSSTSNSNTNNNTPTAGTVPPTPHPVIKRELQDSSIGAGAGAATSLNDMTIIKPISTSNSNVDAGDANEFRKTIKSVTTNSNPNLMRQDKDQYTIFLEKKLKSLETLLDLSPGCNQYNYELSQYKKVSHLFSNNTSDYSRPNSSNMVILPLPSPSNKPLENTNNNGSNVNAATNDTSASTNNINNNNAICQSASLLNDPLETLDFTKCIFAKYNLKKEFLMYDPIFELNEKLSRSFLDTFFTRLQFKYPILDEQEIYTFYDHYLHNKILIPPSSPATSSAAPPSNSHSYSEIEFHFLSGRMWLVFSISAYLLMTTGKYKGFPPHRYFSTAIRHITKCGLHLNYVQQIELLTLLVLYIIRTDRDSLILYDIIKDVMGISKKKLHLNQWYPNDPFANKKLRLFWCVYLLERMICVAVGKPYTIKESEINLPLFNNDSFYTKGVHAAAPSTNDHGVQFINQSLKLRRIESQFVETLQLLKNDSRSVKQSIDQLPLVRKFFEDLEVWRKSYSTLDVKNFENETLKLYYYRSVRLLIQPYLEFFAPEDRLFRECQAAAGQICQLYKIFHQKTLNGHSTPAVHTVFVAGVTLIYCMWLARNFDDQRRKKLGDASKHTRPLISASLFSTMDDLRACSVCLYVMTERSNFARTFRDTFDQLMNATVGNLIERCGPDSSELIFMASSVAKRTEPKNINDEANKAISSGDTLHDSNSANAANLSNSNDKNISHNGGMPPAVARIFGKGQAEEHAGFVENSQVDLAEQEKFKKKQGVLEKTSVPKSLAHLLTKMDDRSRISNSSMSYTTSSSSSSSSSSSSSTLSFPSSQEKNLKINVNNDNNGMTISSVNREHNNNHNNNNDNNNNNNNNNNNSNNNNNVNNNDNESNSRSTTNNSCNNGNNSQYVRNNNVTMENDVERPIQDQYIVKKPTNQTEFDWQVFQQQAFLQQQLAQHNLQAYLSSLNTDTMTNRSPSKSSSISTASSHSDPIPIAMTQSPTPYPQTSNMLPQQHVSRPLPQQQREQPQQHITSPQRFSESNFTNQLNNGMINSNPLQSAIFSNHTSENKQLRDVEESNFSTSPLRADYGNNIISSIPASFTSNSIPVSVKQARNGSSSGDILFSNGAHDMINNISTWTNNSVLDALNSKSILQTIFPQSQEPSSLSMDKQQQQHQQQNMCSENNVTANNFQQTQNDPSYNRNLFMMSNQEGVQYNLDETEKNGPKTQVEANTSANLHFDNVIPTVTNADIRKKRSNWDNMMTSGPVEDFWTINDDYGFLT
# EXPERIMENT: PBM E-score (8-mer binding enrichment) (E-score (-0.5 to 0.5)); higher = stronger / more preferred TF binding
# COND: protein concentration: 200 nM; construct: GST-DNA-binding domain
Over roughly 33,000 sequences, “E-score (-0.5 to 0.5)” has its median near -0.054; the highest 2% begin near 0.39. The full list was thinned out, with the highest values kept by preference.
PROPERTY LABEL: PBM E-score

The reported PBM E-score value, Ylr278c (UniProt Q05854), for GACGCTGA reads -0.214

The reported PBM E-score value, Ylr278c (UniProt Q05854), for ATTATAGC reads -0.086

The reported PBM E-score value, Ylr278c (UniProt Q05854), for GTCCGGAA reads 0.44

The reported PBM E-score value, Ylr278c (UniProt Q05854), for ACGATCCG reads 0.283

The reported PBM E-score value, Ylr278c (UniProt Q05854), for GCACCACC reads 0.0569

The reported PBM E-score value, Ylr278c (UniProt Q05854), for AGACGGAT reads 0.176

The reported PBM E-score value, Ylr278c (UniProt Q05854), for CCGATCCG reads 0.424

The reported PBM E-score value, Ylr278c (UniProt Q05854), for TTACGGAA reads 0.283

The reported PBM E-score value, Ylr278c (UniProt Q05854), for CGACGGAA reads 0.339

The reported PBM E-score value, Ylr278c (UniProt Q05854), for CCGATCGA reads 0.226

The reported PBM E-score value, Ylr278c (UniProt Q05854), for CTCCGGCC reads 0.455

The reported PBM E-score value, Ylr278c (UniProt Q05854), for ACGATCGG reads 0.334

The reported PBM E-score value, Ylr278c (UniProt Q05854), for GTACGGAA reads 0.31

The reported PBM E-score value, Ylr278c (UniProt Q05854), for CGTTTAAC reads -0.174

The reported PBM E-score value, Ylr278c (UniProt Q05854), for TTCCGGAA reads 0.467

The reported PBM E-score value, Ylr278c (UniProt Q05854), for GCCCGGCA reads 0.255

The reported PBM E-score value, Ylr278c (UniProt Q05854), for ATCCGGAA reads 0.432

The reported PBM E-score value, Ylr278c (UniProt Q05854), for CGACGGAC reads 0.337

The reported PBM E-score value, Ylr278c (UniProt Q05854), for CCGATCCA reads 0.208

The reported PBM E-score value, Ylr278c (UniProt Q05854), for GGTGCTAC reads -0.0466

The reported PBM E-score value, Ylr278c (UniProt Q05854), for ATCCGCAT reads 0.263

The reported PBM E-score value, Ylr278c (UniProt Q05854), for ATCCGTAA reads 0.155

* * *

# ASSAY SYSTEM: Ylr278c (UniProt Q05854)
# EXPERIMENT: PBM E-score (8-mer binding enrichment) (E-score (-0.5 to 0.5)); higher = stronger / more preferred TF binding
# COND: protein concentration: 200 nM; construct: GST-DNA-binding domain
Over roughly 33,000 sequences, “E-score (-0.5 to 0.5)” has its median near -0.054; the highest 2% begin near 0.39. The sample holds the highest values, similar sequences and a random draw of the others, so the mix is not that of the screen.
If the reported PBM E-score equals or exceeds 0.03, assign 1 (yes). If not, assign 0 (no).

Answer whether PBM E-score of GCCCGGCC is greater than or equal to 0.03.
1 (yes)

Answer whether PBM E-score of CATTGGCA is greater than or equal to 0.03.
0 (no)

Answer whether PBM E-score of TCCCCGAA is greater than or equal to 0.03.
1 (yes)

Answer whether PBM E-score of AGCTAAGC is greater than or equal to 0.03.
0 (no)

Answer whether PBM E-score of CCGGAGGC is greater than or equal to 0.03.
1 (yes)

Answer whether PBM E-score of GTCCGAAC is greater than or equal to 0.03.
1 (yes)

Answer whether PBM E-score of TACTCCTA is greater than or equal to 0.03.
0 (no)

Answer whether PBM E-score of GCCCGGAC is greater than or equal to 0.03.
1 (yes)

Answer whether PBM E-score of TGGACTAA is greater than or equal to 0.03.
0 (no)

Answer whether PBM E-score of CCCGGGAG is greater than or equal to 0.03.
1 (yes)

Answer whether PBM E-score of TAAGTATA is greater than or equal to 0.03.
0 (no)

Answer whether PBM E-score of CTGACTTC is greater than or equal to 0.03.
1 (yes)

Answer whether PBM E-score of CTGCAGCA is greater than or equal to 0.03.
0 (no)

Answer whether PBM E-score of GGACCGGA is greater than or equal to 0.03.
1 (yes)

Answer whether PBM E-score of ACGCATGC is greater than or equal to 0.03.
0 (no)

Answer whether PBM E-score of CGACCGGA is greater than or equal to 0.03.
1 (yes)

Answer whether PBM E-score of CAGGCCGG is greater than or equal to 0.03.
1 (yes)

Answer whether PBM E-score of ATCCGAAG is greater than or equal to 0.03.
1 (yes)

Answer whether PBM E-score of CCCCCGGA is greater than or equal to 0.03.
1 (yes)

Answer whether PBM E-score of AGGAGGTC is greater than or equal to 0.03.
0 (no)

Answer whether PBM E-score of ACTTCAAC is greater than or equal to 0.03.
0 (no)

Answer whether PBM E-score of CGGACTTC is greater than or equal to 0.03.
1 (yes)

Answer whether PBM E-score of AACTCCTC is greater than or equal to 0.03.
1 (yes)

Answer whether PBM E-score of CTGCAACC is greater than or equal to 0.03.
0 (no)

Answer whether PBM E-score of CCCCGGAC is greater than or equal to 0.03.
1 (yes)

Answer whether PBM E-score of CCCCCGGC is greater than or equal to 0.03.
1 (yes)

Answer whether PBM E-score of AGACCGGA is greater than or equal to 0.03.
1 (yes)

Answer whether PBM E-score of GATAGTGA is greater than or equal to 0.03.
0 (no)

Answer whether PBM E-score of CACCGAAG is greater than or equal to 0.03.
1 (yes)

Answer whether PBM E-score of AGGACTTC is greater than or equal to 0.03.
0 (no)

Answer whether PBM E-score of TCCCCGGA is greater than or equal to 0.03.
1 (yes)

Answer whether PBM E-score of CGGAGGTC is greater than or equal to 0.03.
1 (yes)

Answer whether PBM E-score of AGGACTTA is greater than or equal to 0.03.
0 (no)

Answer whether PBM E-score of AAGGTGCC is greater than or equal to 0.03.
0 (no)

Answer whether PBM E-score of CCCCGGAA is greater than or equal to 0.03.
1 (yes)

Answer whether PBM E-score of CCGGAGGA is greater than or equal to 0.03.
1 (yes)

Answer whether PBM E-score of CCTGATAC is greater than or equal to 0.03.
0 (no)

Answer whether PBM E-score of GGCCCGTA is greater than or equal to 0.03.
1 (yes)

Answer whether PBM E-score of GCCCGGGC is greater than or equal to 0.03.
1 (yes)

Answer whether PBM E-score of CATGCTAG is greater than or equal to 0.03.
0 (no)

Answer whether PBM E-score of CCCCGGTC is greater than or equal to 0.03.
1 (yes)

Answer whether PBM E-score of CCCCCCGA is greater than or equal to 0.03.
1 (yes)

Answer whether PBM E-score of GGTTAGAA is greater than or equal to 0.03.
0 (no)

Answer whether PBM E-score of ATCCGAAA is greater than or equal to 0.03.
1 (yes)

Answer whether PBM E-score of ACGGAGGC is greater than or equal to 0.03.
1 (yes)

Answer whether PBM E-score of CGACTGCC is greater than or equal to 0.03.
1 (yes)

Answer whether PBM E-score of CAGGAGGC is greater than or equal to 0.03.
0 (no)

Answer whether PBM E-score of TACTCCGA is greater than or equal to 0.03.
1 (yes)

Answer whether PBM E-score of CGGACTCA is greater than or equal to 0.03.
1 (yes)

Answer whether PBM E-score of GCCCCGGA is greater than or equal to 0.03.
1 (yes)

Answer whether PBM E-score of AGGACTCC is greater than or equal to 0.03.
1 (yes)

Answer whether PBM E-score of AAGGCCGG is greater than or equal to 0.03.
1 (yes)

Answer whether PBM E-score of AAGGCCCG is greater than or equal to 0.03.
1 (yes)

Answer whether PBM E-score of AAGGCCGC is greater than or equal to 0.03.
1 (yes)

Answer whether PBM E-score of ACTCGGCG is greater than or equal to 0.03.
1 (yes)

Answer whether PBM E-score of ATCCGAAT is greater than or equal to 0.03.
1 (yes)

Answer whether PBM E-score of GCGGAGGA is greater than or equal to 0.03.
1 (yes)

Answer whether PBM E-score of ATGAATTA is greater than or equal to 0.03.
0 (no)

Answer whether PBM E-score of GCGAGTCA is greater than or equal to 0.03.
0 (no)

Answer whether PBM E-score of CGACCCCG is greater than or equal to 0.03.
1 (yes)

Answer whether PBM E-score of AGAGATTG is greater than or equal to 0.03.
0 (no)

Answer whether PBM E-score of CCCCGGCA is greater than or equal to 0.03.
1 (yes)

Answer whether PBM E-score of AACTCCCC is greater than or equal to 0.03.
1 (yes)

Answer whether PBM E-score of CGGACTTA is greater than or equal to 0.03.
1 (yes)

Answer whether PBM E-score of GAGTCTCC is greater than or equal to 0.03.
1 (yes)

Answer whether PBM E-score of TACTCCAA is greater than or equal to 0.03.
0 (no)

Answer whether PBM E-score of CGCGACAA is greater than or equal to 0.03.
1 (yes)

Answer whether PBM E-score of AACCGAAT is greater than or equal to 0.03.
1 (yes)

Answer whether PBM E-score of GGGACTTA is greater than or equal to 0.03.
0 (no)

Answer whether PBM E-score of GGCCCGCA is greater than or equal to 0.03.
1 (yes)

Answer whether PBM E-score of GTAAATGA is greater than or equal to 0.03.
0 (no)

Answer whether PBM E-score of CCTTTGAC is greater than or equal to 0.03.
0 (no)

Answer whether PBM E-score of ACCCTTAT is greater than or equal to 0.03.
0 (no)

Answer whether PBM E-score of CCCCGGAG is greater than or equal to 0.03.
1 (yes)

Answer whether PBM E-score of AAGGCCGA is greater than or equal to 0.03.
1 (yes)

Answer whether PBM E-score of CAGGAGGA is greater than or equal to 0.03.
0 (no)

Answer whether PBM E-score of GACTCCTA is greater than or equal to 0.03.
0 (no)

Answer whether PBM E-score of ATAGTGGC is greater than or equal to 0.03.
0 (no)

Answer whether PBM E-score of GACTCCGA is greater than or equal to 0.03.
1 (yes)

Answer whether PBM E-score of GAGGAGGA is greater than or equal to 0.03.
0 (no)

Answer whether PBM E-score of GCCCCGGC is greater than or equal to 0.03.
1 (yes)

Answer whether PBM E-score of GACAGTCC is greater than or equal to 0.03.
1 (yes)

Answer whether PBM E-score of CGACCGAA is greater than or equal to 0.03.
1 (yes)

Answer whether PBM E-score of CAGAGGAG is greater than or equal to 0.03.
0 (no)

Answer whether PBM E-score of CCCCGGCG is greater than or equal to 0.03.
1 (yes)

Answer whether PBM E-score of CCCCGGTA is greater than or equal to 0.03.
1 (yes)

Answer whether PBM E-score of GCCCCCGA is greater than or equal to 0.03.
1 (yes)

Answer whether PBM E-score of TATGTTCA is greater than or equal to 0.03.
0 (no)

Answer whether PBM E-score of ACACACTA is greater than or equal to 0.03.
0 (no)

Answer whether PBM E-score of GGACCGCA is greater than or equal to 0.03.
1 (yes)

Answer whether PBM E-score of CCCCGGCC is greater than or equal to 0.03.
1 (yes)
